- TARGET_SYSTEM: Voltage-gated potassium channel subunit beta-2 (Rattus norvegicus) (UniProt P62483)
- Sequence (P62483 whole entry, looked up): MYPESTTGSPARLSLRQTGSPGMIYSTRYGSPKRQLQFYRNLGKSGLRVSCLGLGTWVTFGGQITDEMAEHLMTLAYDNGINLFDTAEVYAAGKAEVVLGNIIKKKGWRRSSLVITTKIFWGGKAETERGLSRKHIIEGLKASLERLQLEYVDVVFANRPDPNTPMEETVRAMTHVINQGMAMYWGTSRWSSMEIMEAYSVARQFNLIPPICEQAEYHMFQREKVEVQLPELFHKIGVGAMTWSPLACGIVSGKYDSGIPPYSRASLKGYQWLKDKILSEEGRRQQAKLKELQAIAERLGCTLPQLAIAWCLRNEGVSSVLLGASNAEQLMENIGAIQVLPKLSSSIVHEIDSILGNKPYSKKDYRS
- PROTOCOL_TEXT: enhancers of rat Kvbeta2 NADPH turnover – biochemical, NADPH fluorescence, primary screen (AID 623);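 note: fluorescence intensity change per second fitted from 20 to 320 s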
- RECORDED_CONDITIONS: Recombinant KvBeta, NADPH fluorescence decrease slope, 10 min; at 10 µM; hits give low values
ASSAY_READOUT: NADPH fluorescence slope

# MOLECULE, RESULT_NUMBER
rows = [
    ("CCOc1cc(N2CCOCC2)c(OCC)cc1NC(=O)CSc1cccc[n+]1[O-]", -0.000267),
    ("COc1ccc(CN2CC(C(=O)NCCCOC(C)C)CC2=O)cc1 (stereo unspecified)", "-6.3e-05"),
    ("O=C(c1sc2ccccc2c1Cl)N(Cc1cccs1)C1CCS(=O)(=O)C1 (stereo unspecified)", "-2.7e-05"),
    ("O=C(Nc1ccccc1C(=O)N1CCOCC1)c1ccncc1", "-3.8e-05"),
    ("CC(=O)c1ccc(OCC(O)CN2CCN(Cc3ccc4c(c3)OCO4)CC2)cc1 (stereo unspecified)", "-4.2e-05"),
    ("Cc1ccc(CCP(=O)(O)CN2CCOCC2)cn1", "3.3e-05"),
    ("C=CCn1c(Cc2cccs2)nnc1SCC(=O)Nc1ccc(OC)c(OC)c1", "-1.9e-05"),
    ("c1ccc(CNc2ccc3c(c2)ncn3C2CCCCC2)nc1", "4.2e-05"),
    ("C=Cn1c(N2CCOCC2)nc2c1c(=O)[nH]c(=O)n2C", "-2.2e-05"),
    ("COC(=O)C1CCN(C(=O)CSc2nnc(-c3ccncc3)o2)CC1", "-5.5e-05"),
    ("COc1ccc(CCN2C(=O)CCC2(C)C(=O)NCc2cccnc2)cc1OC (stereo unspecified)", "2.6e-06"),
]
